# maps each entry to its IC50
# test.system: Human DHODH (Homo sapiens, UniProt Q02127)
# Construct: C-terminal His6-tagged HsDHODH residues 29-395 in pET-22b (start ^29MATGDE); His6 (C)
# Sequence (Q02127 29-395): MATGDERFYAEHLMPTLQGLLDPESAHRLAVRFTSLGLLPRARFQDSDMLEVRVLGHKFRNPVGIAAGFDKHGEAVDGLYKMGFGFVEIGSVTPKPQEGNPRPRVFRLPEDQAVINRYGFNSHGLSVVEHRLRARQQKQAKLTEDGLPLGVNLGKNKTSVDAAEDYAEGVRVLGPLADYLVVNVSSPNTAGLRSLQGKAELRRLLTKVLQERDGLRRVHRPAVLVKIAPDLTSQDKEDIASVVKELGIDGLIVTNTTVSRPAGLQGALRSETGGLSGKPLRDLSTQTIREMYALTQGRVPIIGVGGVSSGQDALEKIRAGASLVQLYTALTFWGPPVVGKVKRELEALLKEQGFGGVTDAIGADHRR
# method.description: DHODH inhibition, steady-state DCIP assay (human DHODH)
# condition.parameters: recombinant HsDHODH, DCIP method, 25°C, 5 nM enzyme; top concentration 100 µM or 30 µM

| compound | IC50 |
| --- | --- |
| CCn1ccc2c([C@](C)(O)c3cnc(C(F)(F)F)c(Cl)c3)n(C)nc2c1=O (single isomer, unassigned) [1-36] | > 100 µM |
| Cn1nc2c(=O)n(C3CC3)cnc2c1[C@](O)(c1ccc(C(F)(F)F)nc1)C(F)(F)F (single isomer, unassigned) [5-21] | > 30 µM |
| Cn1nc2c(=O)n(C3CC3)cnc2c1[C@](O)(c1cnc(C(F)(F)F)c(C#N)c1)C(F)(F)F (single isomer, unassigned) [5-52] | > 30 µM |
| CC[C@@](N)(c1cnc(C(F)(F)F)c(Cl)c1)c1c2ncn(C3CC3)c(=O)c2nn1C (single isomer, unassigned) [4-27] | > 30 µM |
| Cn1nc2c(=O)n(C3CC3)cnc2c1[C@](O)(c1ccc(C(F)(F)F)nc1)C1CC1 (single isomer, unassigned) [3-9] | > 30 µM |
| Cn1nc2c(=O)n(C3CC3)cnc2c1[C@](O)(c1cnc(C(F)(F)F)c(Cl)c1)C(F)(F)F (single isomer, unassigned) [5-3] | > 30 µM |
| CCn1ccc2c([C@](O)(c3cnc(C(F)(F)F)c(Cl)c3)C3CC3)n(C)nc2c1=O (single isomer, unassigned) [1-32] | > 100 µM |

FYI, the data here is from patent EP4680608B1.
